Experiment: Primary qHTS for inhibitors of nuclear receptor binding SET domain protein 2 (NSD2) in an RCH-ACV wild type WT cells (2C) (AID 1645877); also: nearly all actives have a fitted effect of over 70% in size
Conditions: RCH-ACV (leukaemia line) NSD2 WT (2C) viability, CellTiter-Glo, 72 h; series mostly up to 44.9 µM
From the text: Assay Provider: Jonathan D. Licht, MD University of Florida College of Medicine, Gainesville, FL Mutations in epigenetic regulators are common in relapsed pediatric acute lymphoblastic leukemia (ALL). Here, we uncovered the mechanism underlying the relapse of ALL driven by an activating mutation of the NSD2 histone methyltransferase (p.E1099K). […] Correction of this mutation restored glucocorticoid sensitivity. […]
Results filed as inconclusive are left out. The source made the active and inactive calls. Calls follow the shape of the dose curve; as a rule, active = well fitted inhibition curve with a large enough effect; inconclusive = small, poorly fitted or top-dose-only effect; inactive = no such curve, though single readings can be large or run the other way.
Outcomes: Y (active), N (inactive)

compound=CCN(CC)CC1CCN(c2ncc3ncnc(Nc4ccc(F)c(Cl)c4)c3n2)CC1 cat=Y
compound=COc1cc(OC)cc(N(CCNC(C)C)c2ccc3ncc(-c4cnn(C)c4)nc3c2)c1 cat=Y
compound=CCOC(=O)c1cc2ccc(O)cc2oc1=O cat=N
compound=CC(=O)N[C@@H](CC(=O)O)C(=O)N[C@@H](CCC(=O)O)C(=O)N[C@H](C(=O)N[C@@H](CC(=O)O)C(=O)Nc1ccc2c(C)cc(=O)oc2c1)C(C)C cat=Y
compound=Cc1cc(F)c(Nc2ncnc3cc(OCc4ccccc4)ccc23)cc1O cat=Y
compound=O=C(O)c1c[nH]c2c(ccc3ccccc32)c1=O cat=N
compound=CS(=O)(=O)c1ccc([C@@H](C[C@H]2CCC(=O)C2)C(=O)Nc2cnccn2)cc1Cl cat=N
compound=Oc1cccc(-c2nc(N3CCOCC3)c3sccc3n2)c1 cat=Y
compound=COC1(c2sc3c(N4CCOCC4)nc(-c4cnc(N)nc4)nc3c2C)COC1 cat=Y
compound="N#CCC(C1CCCC1)n1cc(-c2ncnc3[nH]ccc23)cn1 (stereo unspecified)" cat=Y
compound=CCN(CC)CCNC(=O)c1c(C)[nH]c(/C=C2\C(=O)Nc3ccc(Cl)cc32)c1C cat=Y
compound=CC(C)COc1ccc(CNC(=O)N(Cc2ccc(F)cc2)C2CCN(C)CC2)cc1 cat=Y
compound="O=C(Nc1ccc(F)cc1)N1CCc2ccccc2C1c1ccc(C(F)(F)F)cc1 (stereo unspecified)" cat=Y
compound=O=[N+]([O-])c1ccc(-[n+]2nc(-c3ccccc3)nn2-c2ccc(I)cc2)cc1 cat=N
compound=CN1CCN(Cc2ccc(Nc3ncc(Cl)c(Nc4ccccc4S(=O)(=O)N(C)C)n3)cc2)CC1 cat=Y
compound=C=C(C)C(=O)O[C@H]1[C@H]2C(=C)C(=O)O[C@@H]2C[C@@H](C)/C=C\C(=O)[C@](C)(O)[C@@H]1OC(C)=O cat=N
compound="CCN1CCN(Cc2ccc(-c3cc4c(NC(C)c5ccccc5)ncnc4[nH]3)cc2)CC1 (stereo unspecified)" cat=Y
compound=N#Cc1cccc(C#N)c1-c1nc2c3ccccc3c3cc(Cl)ccc3c2[nH]1 cat=Y
compound=CC(C)(C)c1ccc(-c2nc3ccccc3[nH]2)cc1 cat=Y
compound=CC[C@H](CO)Nc1nc(Nc2cccc(-c3ccccn3)c2)c2ncn(C(C)C)c2n1 cat=Y
compound=Cc1nnsc1C(=O)Nc1ccc(-n2nc(C(F)(F)F)cc2C(F)(F)F)cc1 cat=Y

Cited source: PubChem BioAssay (NCATS)
